What inhibition at 1.1 µM was measured for each of the following?
- System: HIV-1 protease (Human immunodeficiency virus type 1 group M subtype B, UniProt P04585)
- Construct: The protease (or proteinase), consisting of only 99 amino acids, is among the smallest enzymes known
- Assay Overview: In vitro HIV protease inhibitory assay (HIV Protease FITC Assay)
- Format: biochemical
- Run Conditions: HIV-1 Dose 1.100 uM; read-out: HIV-1 Protease % Inhib
Answers are plain numbers, in %.

C=CC(C1=C(O)CC2(CCCC2)OC1=O)c1ccccc1 (stereo not drawn) = 18.5

Look at each compound and report its inhibition at 1.1 µM.
1. CCC(CCc1ccsc1)c1cc(O)c(C(c2ccccc2)C2CC2)c(=O)o1 (stereo not drawn)
2. O=C1OC(CCc2ccccc2)(CCc2ccccc2)CC(O)=C1C(C=Cc1ccccc1)c1ccccc1 (stereo not drawn)
3. CCC(c1cc(O)c(C(c2ccccc2)C2CC2)c(=O)o1)C(O)c1ccccc1 (stereo not drawn)
4. CCC(Cc1ccccc1)c1cc(O)c(C(c2cccc(NS(=O)(=O)c3ccc(C)cc3)c2)C2CC2)c(=O)o1 (stereo not drawn)
5. CC(C)CC1(CCc2ccccc2)CC(O)=C(C(/C=C/c2ccccc2)c2ccccc2)C(=O)O1 (stereo not drawn)

# output
1. 75
2. 26
3. 82.7
4. 79.9
5. 37.5

# input Name the reported inhibition at 1.1 µM value associated with the compound CCC(CCC1OCCCO1)c1cc(O)c(C(c2ccccc2)C2CC2)c(=O)o1 (stereo not drawn)
# output 71.2

----------
What inhibition at 30 µM was measured for each of the following?
- System: HIV-1 protease (Human immunodeficiency virus type 1 group M subtype B)
- Construct: The protease (or proteinase), consisting of only 99 amino acids, is among the smallest enzymes known
- Assay Overview: In vitro HIV protease inhibitory assay (HIV Protease FITC Assay)
- Assay type: biochemical
- Run Conditions: HIV-1 Dose 30.000 uM; read-out: HIV-1 Protease % Inhib
Give bare numbers, in %.

Here's what some known entries look like.
CCC(Cc1ccccc1)c1cc(O)c(C(c2cccc(NS(=O)(=O)c3cccc4cccnc34)c2)C2CC2)c(=O)o1 (stereo not drawn) = 102
CCC(Cc1ccccc1)c1cc(O)c(C(c2cccc(NC(=O)c3ccc(C#N)cc3)c2)C2CC2)c(=O)o1 (stereo not drawn) = 85.4

# input Tell me reported inhibition at 30 µM for CC(C)C(CC1CCCOC1)c1cc(O)c(C(c2ccccc2)C2CC2)c(=O)o1 (stereo not drawn) , tested with HIV-1 protease (Human immunodeficiency virus type 1 group M subtype B).
# output 106

----------
- System: HIV-1 protease (Human immunodeficiency virus type 1 group M subtype B)
- Construct: The protease (or proteinase), consisting of only 99 amino acids, is among the smallest enzymes known
- Assay Overview: In vitro HIV protease inhibitory assay (HIV Protease FITC Assay)
- Format: biochemical
- Run Conditions: HIV-1 Dose 0.410 uM; read-out: HIV-1 Protease % Inhib
Reported Metric: inhibition at 0.41 µM (%)
Numbers only, in %.

Here's what some known entries look like.
CCCc1oc(=O)c(C(CC)c2ccccc2)c(O)c1Br (stereo not shown) = 22.2
CCC(CC1CCCCO1)c1cc(O)c(C(c2ccccc2)C2CC2)c(=O)o1 (stereo not shown) = 85.7

Look at each compound and report its inhibition at 0.41 µM.
1. CCC(CC1CCOC1)c1cc(O)c(C(c2ccccc2)C2CC2)c(=O)o1 (stereo not shown)
2. CCC(c1ccccc1)c1c(O)c(Br)c(C(CC2CC2)CC2CC2)oc1=O (stereo not shown)
3. CCC(CC1CCOCC1)c1cc(O)c(C(c2ccccc2)C2CC2)c(=O)o1 (stereo not shown)
4. CCC(CC1CCCOC1)c1cc(O)c(C(c2ccccc2)C2CC2)c(=O)o1 (stereo not shown)

# output
1. 79.3
2. 69.4
3. 74.5
4. 100

Look at each compound and report its inhibition at 0.41 µM.
1. CCC(Cc1ccccn1)c1cc(O)c(C(c2ccccc2)C2CC2)c(=O)o1 (stereo not shown)
2. CCC(CC1CCCO1)c1cc(O)c(C(c2ccccc2)C2CC2)c(=O)o1 (stereo not shown)

# output
1. 68.5
2. 92.6

This collection of values is drawn from patent EP1203770A1.
